# Test system: SF-268 CNS
# assayOverview: NCI tumour cell line growth inhibition, 48 h
# TGI per record follows

# annotated cases, reported TGI shown
compound	testReadout	observedValue
C=CCNc1nc(C#N)c(N)s1	TGI	> 10 µM
COc1ccc(-c2ccc(/C=N/n3c(COc4ccc(Cl)cc4Cl)nn(CN4CCOCC4)c3=S)o2)c([N+](=O)[O-])c1	TGI	> 100 µM
S=c1sc2c(s1)SCCCCSCCCCSc1sc(=S)sc1SCCCCSCCCCS2	TGI	> 100 µM
O=[N+]([O-])C1C2C=CC(C2)[C@H]1c1ccco1 (stereo not given in full)	TGI	> 100 µM

Pending compound:
Return value of TGI for input `CCS(=O)(=O)Nc1ccc(Nc2c3ccccc3nc3ccccc23)c(OC)c1` , no commentary. 12.5 µM

---

# System: A498 renal
# assayOverview: NCI tumour cell line growth inhibition, 48 h
Reported GI50 values are given for each entry in this list.

molecule	observedValue
Nc1nc2c(c3ncncc13)C(c1cccc(C(F)(F)F)c1)Cc1ncncc1-2 (centres undefined)	3.28 µM
COc1ccc(/C(=C2/O[C@@H]([C@H]3COC(C)(C)O3)[C@H]3OC(C)(C)O[C@@H]23)c2cc(OC)c(OC)c(OC)c2)cc1O	32.1 µM
CCN(CC)CC(C)Nc1ccc([N+](=O)[O-])c2sc3ccccc3c(=O)c12 (centres undefined)	1.49 µM

Please list GI50 recorded for the molecule CCCCCCCCCCCCCCCCN1CC2CCCCC2C1 (centres undefined) 16.2 µM

---

# System: SW-620 colon
# assayOverview: NCI tumour cell line growth inhibition, 48 h
testReadout: TGI

Worked set:
compound	TGI
CC#C[C@]1(O)CC[C@H]2[C@@H]3CCC4=CC(=O)CCC4=C3[C@@H](c3ccc4c(c3)OCO4)C[C@@]21C	> 1000 µM
O=[N+]([O-])c1ccc(-c2nnc(C34CC5CC(CC(C5)C3)C4)o2)cc1	> 100 µM
CCOc1ccc(NC(=O)C(=O)CC(=O)C2=C(C)Nc3ccccc3S2)cc1	> 50 µM

State its TGI: `CCN(CC)CCC(=O)c1ccc(Oc2ccc(Cl)cc2)cc1` 44.4 µM

Given `NC(=O)N=C(N(Cc1ccccc1)Cc1ccccc1)N(Cc1ccccc1)Cc1ccccc1` , respond with its TGI. > 100 µM

Please report TGI for the following compound: `C[C@H](OCc1ccccc1)C(=O)N1CCS(=O)(=O)N2CCC[C@H]2C1=O` > 100 µM

Give a short answer stating reported TGI for `COc1ccc(OC)c(NC(=O)C2=C(C)NC(C)=C(C(=O)Nc3cc(OC)ccc3OC)C2c2ccccc2)c1` . > 100 µM

Report measured TGI; entry is CCCCCCCCCCCCCCCCN1CC2CCCCC2C1 (stereo unspecified) 15 µM

---

# Test system: NCI-H23 lung
# assayOverview: NCI tumour cell line growth inhibition, 48 h
Measured TGI by item

compound	TGI
CCC1C(C#N)=C(N)OC2=C1C(=O)CC(C)(C)C2 (stereo unspecified)	> 100 µM
O=C1C(Cl)=C(OCCCCl)C(=O)c2c(O)ccc(O)c21	5.53 µM
CCc1ccccc1NC(=O)C(=O)CC(=O)c1sc(Nc2ccccc2)nc1C	> 100 µM
COc1cccc(N=Cc2cc3cc(Br)ccc3nc2Cl)c1	> 50 µM

Identify measured TGI associated with N=c1c2c(C(N)=O)cn(C3OC(CO)C(O)C3O)c2ncn1O (stereo unspecified) 0.358 µM

Read off the recorded TGI for `O=C(N/C(=C\c1ccc2c(c1)OCO2)c1nc2ccccc2[nH]1)c1ccccc1` 53.4 µM

---

# Test system: CCRF-CEM leukemia
# assayOverview: NCI tumour cell line growth inhibition, 48 h
// reported TGI per item

Answered cases to consult:
compound	TGI
CC(=O)N1C(c2[nH]c3ccccc3c2-c2ccccc2)CCN1c1ccccc1 (stereo not drawn)	> 10 µM
NC1CC(=O)c2sc(I)cc21 (stereo not drawn)	> 100 µM
COc1ccc(-c2ccc(/C=N/n3c(COc4ccc(Cl)cc4Cl)nn(CN4CCOCC4)c3=S)o2)c([N+](=O)[O-])c1	43.8 µM

Then there is this compound:
Specify the recorded TGI for O=C(NCCCCCCNC(=O)n1cc(F)c(=O)[nH]c1=O)NCCCOCCOCCOCCOCCOCCOCCOCCOCCOCCOCCOCCOCCOCCOCCOCCOCCOCCOCCOCCOCCOCCCNC(=O)C(O)C(O)C(O)C(O)CO (stereo not drawn) , system: CCRF-CEM leukemia. > 100 µM

---

# System: UO-31 renal
# assayOverview: NCI tumour cell line growth inhibition, 48 h
Here, each record is paired with measured GI50 data.

Answered cases to consult:
N#Cc1c(N2CCCC2)[nH]c(=O)c(C(c2c(Cl)cccc2Cl)c2c(O)c(C#N)c(N3CCCC3)[nH]c2=O)c1O 16.1 µM
C=CCOc1cccc(/C=C2\SC(=Nc3ccc(O)cc3)NC2=O)c1 0.832 µM
O=C1c2cccnc2C(=O)c2nc3cc(N4CCN(C5CC5)CC4)ccc3nc21 0.259 µM
COc1ccc(/C(=C2/O[C@@H]([C@H]3COC(C)(C)O3)[C@H]3OC(C)(C)O[C@@H]23)c2cc(OC)c(OC)c(OC)c2)cc1O 21.8 µM
COc1ccc2sc3c(NCCCN(C)C)nc4ccccc4c3c(=O)c2c1 1.47 µM

The record that follows has no GI50 shown yet.
Read off the recorded GI50 for `COc1ccc(-c2c3c(N)nc(-c4ccncc4)nc3nc3c2c(C)nn3-c2ccccc2)cc1` 50.7 µM

---

# System: COLO 205 colon
# assayOverview: NCI tumour cell line growth inhibition, 48 h
A collection of compounds and their measured TGI

compound	observedValue
CN(CC1(CO)CCC1)c1cc(Cl)nc(N)n1	> 100 µM
CCOc1ccc(NC(=O)C(=O)CC(=O)C2=C(C)Nc3ccccc3S2)cc1	> 50 µM
O=C(NCCCCCCNC(=O)n1cc(F)c(=O)[nH]c1=O)NCCCOCCOCCOCCOCCOCCOCCOCCOCCOCCOCCOCCOCCOCCOCCOCCOCCOCCOCCOCCOCCOCCCNC(=O)C(O)C(O)C(O)C(O)CO (stereo not given)	> 100 µM
Cc1ccccc1[P+](Cc1ccccc1)(c1ccccc1)c1ccccc1	4 µM
COC(=O)c1ccccc1CC1Cc2ccc3c(c2C1=O)CCC3 (stereo not given)	> 100 µM

Identify measured TGI corresponding to `Cc1ccc(N=Cc2ccc3c(c2)OCO3)cc1C` > 100 µM

Give me measured TGI, please, for this compound: `Cc1ccc(C2=Nc3cccc4cccc(c34)N2)cc1` > 100 µM

Output TGI of N#CC12C(=O)N3C(=NC(c4ccccc4)NC3c3ccccc3)C1(C#N)C(c1ccccc1)NC1=C2CCC1 (stereo not given) > 100 µM

---

# Test system: TK-10 renal
# assayOverview: NCI tumour cell line growth inhibition, 48 h
testReadout: TGI

molecule	observedValue
COc1cc(/C=C/c2cc(O)c3cc(C(C)=O)c(=O)oc3c2)cc2c1O[C@]1(C)CC[C@@H](O)C(C)(C)[C@H]1C2	> 77.7 µM

Note TGI for the molecule shown: `O=C(N/C(=C\c1ccc2c(c1)OCO2)c1nc2ccccc2[nH]1)c1ccccc1` 92.3 µM

Supply TGI value. Item: `CCCCCCCCCCCC(=O)Oc1c(Cl)cc(Cl)c(OC(=O)C(=O)Oc2c(Cl)cc(Cl)c(OC(=O)CCCCCCCCCCC)c2Cl)c1Cl` > 100 µM

---

# System: A549 NSCLC
# assayOverview: NCI tumour cell line growth inhibition, 48 h
TGI values for the molecules below.

# count of solved cases: 5
molecule	testReadout	observedValue
C[C@]12CC[C@@H]3c4ccc(OP(=O)(O)O)cc4CC[C@H]3[C@@H]1CCC2=O	TGI	> 100 µM
COc1ccc(/C=C2\NC(=S)N(CN3CCCCC3)C2=O)cc1	TGI	> 100 µM
CCOC(=O)C1(C(=O)OCC)Nc2cccnc2N(C)N1	TGI	> 100 µM
N#CC12C(=O)N3C(=NC(c4ccccc4)NC3c3ccccc3)C1(C#N)C(c1ccccc1)NC1=C2CCC1 (stereo unspecified)	TGI	> 100 µM
CC1=C(C(=O)O)N2C(=O)[C@@H](NC(=O)C(c3ccc(O)cc3)N3CSC(=S)N(C(C)C)C3)C2SC1 (stereo partly specified)	TGI	> 100 µM

Respond only with TGI recorded for `COc1ccc2c(c1)/C(=C\c1c(C)nc3sccn13)C(=O)N2` > 100 µM

---

# Tested on: IGROV1 ovarian
# assayOverview: NCI tumour cell line growth inhibition, 48 h
testReadout: TGI

Recorded TGI, per entry:
compound	assayedTarget	observedValue
NNC(=O)/C(=C/c1ccc(Cl)cc1Cl)NC(=O)c1ccccc1	IGROV1 ovarian	> 100 µM
CC1=C(Oc2ccccc2)C(CCC(=O)O)c2c(O)cc(Cl)c(O)c21 (stereo not given)	IGROV1 ovarian	> 100 µM
ONc1ncnc2nc[nH]c12	IGROV1 ovarian	> 100 µM

Kindly indicate its recorded TGI. Item: `O=[N+]([O-])c1ccc(-c2nnc(C34CC5CC(CC(C5)C3)C4)o2)cc1` > 100 µM

Return reported TGI. Input compound: CC(=O)OCC1OC(SC2=N/C(=C\c3cc4c(=O)c5ccccc5sc4s3)C(=O)N2c2ccccc2)C(OC(C)=O)C(OC(C)=O)C1OC(C)=O (stereo not given) > 100 µM

Assign TGI to the following record: CCCC1(NC(=O)C(F)(F)F)CC(OC)OC2COC(c3ccccc3)OC21 (stereo not given) > 100 µM

Give recorded TGI. `CC(C)c1cc(-c2n[nH]c(=O)n2-c2ccc3c(ccn3C)c2)c(O)cc1O` 24.8 µM

Indicate the recorded TGI value for this compound: CC(NNC(=O)c1ccncc1)c1ccc(F)cc1 (stereo not given) > 100 µM

Give TGI for CCCCCCCCCCCC(=O)OCC1OC(n2cc(F)c(=O)[nH]c2=O)C(NC(=O)OCc2ccccc2)C(OC(=O)CCCCCCCCCCC)C1O (stereo not given) > 100 µM

Please supply the value of reported TGI for the item `Cn1cc(-c2ccc3occ(-c4cccc(-c5ccncc5)c4)c3n2)cn1` > 100 µM

Answer with the recorded TGI for the compound listed here: CCC1NC(=O)C1NC(=O)OC (stereo not given) > 100 µM

Output TGI of `N=c1oc2c(Cl)cc(Cl)cc2cc1C(=O)Nc1cccc2ccccc12` 40.6 µM

Input `CCN(CC)CCC(=O)c1ccc(Oc2ccc(Cl)cc2)cc1` , output reported TGI. 41.8 µM

Fill in TGI for record `COc1ccc(/C(C#N)=C/c2ccccc2OC)cc1` > 100 µM

Give the value of TGI reported for the following: `C[C@]12CC[C@@H]3c4ccc(OP(=O)(O)O)cc4CC[C@H]3[C@@H]1CCC2=O` > 100 µM

Please indicate TGI recorded for O=C1[C@H]2ON(c3ccccc3)C(c3ccccc3Cl)[C@H]2C(=O)N1c1ccc(Cc2ccc(N3C(=O)[C@@H]4ON(c5ccccc5)C(c5ccccc5Cl)[C@@H]4C3=O)cc2)cc1 (stereo not given in full) > 100 µM

Respond only with TGI recorded for `Nc1ncnc2ccc(Sc3ccc4ncnc(N)c4c3)cc12` > 100 µM

Tell us which TGI value is on record for CCOC(=O)C1=[N+]([O-])OC2=C(O)CCCC21 (stereo not given) > 100 µM

Input `CC#C[C@]1(O)CC[C@H]2[C@@H]3CCC4=CC(=O)CCC4=C3[C@@H](c3ccc4c(c3)OCO4)C[C@@]21C` , output reported TGI. 589 µM

Report TGI for O=C1C=C2C(=NC34CCCCC3C(c3ccccc3)C3=C(c5ccccc5CC3)N24)c2ccccc21 (stereo not given) > 10 µM

Source listed as PubChem BioAssay (NCI).
